assay_comment: Solubility test in buffers of different pHs (excess salt, HPLC determination of dissolved letermovir, final pH of mixture)
Assay type: physicochemical
conditions_used: pH 5, aqueous buffer, thermodynamic from solid, buffer pH 5; stirred two hours at room temperature; Entries 1-3
reported_property: solubility at 2 h (mg/mL)
Kindly provide the numeric value in mg/mL only, without the unit symbol.

Quick note, solubility at 2 h for COc1cccc(N2CCN(C3=Nc4c(F)cccc4[C@H](CC(=O)[O-])N3c3cc(C(F)(F)F)ccc3OC)CC2)c1.[K+] (mixture of isomers) [potassium salt mixed solvate] landed at 14.3

====

assay_comment: Solubility test in buffers of different pHs (excess salt, HPLC determination of dissolved letermovir, final pH of mixture)
Format: physicochemical
conditions_used: pH 8, aqueous buffer, thermodynamic from solid, buffer pH 8; stirred two hours at room temperature; Entries 1-3
Protocol: Single Crystal X-ray Diffraction (SCXRD): The measured crystal was selected using a Zeiss stereomicroscope using polarized light and prepared under inert conditions immersed in perfluoropolyether as protecting oil for manipulation. […] Least-squares refinement on F0^2 using all measured intensities was carried out using the program SHELXL 2015 (SHELXL; Sheldrick, G. M. Acta Cryst., 2015 A71, 3-8.). […]
reported_property: solubility at 2 h

Quick note, solubility at 2 h for COc1cccc(N2CCN(C3=Nc4c(F)cccc4[C@H](CC(=O)[O-])N3c3cc(C(F)(F)F)ccc3OC)CC2)c1.[K+] (mixture of isomers) [potassium salt mixed solvate] landed at > 100 mg/mL

These measurements were taken from patent US12698262B2.
